# credit: the supplement of paper PMC6555819

# Test system: PPARg:RXRa DBDmut IVT, anti-RXR (DBD mutation: RXRa K156A/R161A, NR concentration 270 nM, RXRa partner concentration 90 nM)
# PROCEDURE DETAILS: PBM binding z-score (relative to random genomic background probes); higher = stronger binding; sequences stand for … in GC…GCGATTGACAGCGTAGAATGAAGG
PARAMETER MEASURED: PBM binding z-score
Lab note: jot the number down without any unit.

In one line, give reported PBM binding z-score of the entry "TGAATAAGGTTAAAGATCAGGGAACGTGGCGTCG" . 1.52

Read off the recorded PBM binding z-score for "CGAACTAGGTCATCCAGGACATTGAATACATTGA" 8.08

Provide only the value of recorded PBM binding z-score for "GTCCCAAGGTGAATAGGTCGTTGATGAGTAGGCG" 1.17

Give PBM binding z-score for the following sequence: "TCTGCTAGGTCAAGGATGGTCAGCTAATCTGCTA" 4.19

State its PBM binding z-score for this sequence: "TTACCAAGGTGAGCTGACGTCGTTGATCCAACTC" 0.771

In one line, give reported PBM binding z-score of the entry "TCATATAGGTCAATGCTAGGTGAAAGTCCGATCT" . 6.69

Report measured PBM binding z-score; entry is "AGAACGAGGGCGATGAGTTGATAGCACGGGTGGC" 0.888

Using the record for "CCAGACAGGTGAGCAGGTAACTCAGCCTCGATTA" , state its measured PBM binding z-score. 1.15

Identify measured PBM binding z-score corresponding to "TGATATAGGTAATACAGGTGAAAGTCGGCATCTA" 4.32

Output measured PBM binding z-score for this item: "AGAACGAGGGCCATGAGTTGATAGCACGGGTGGC" 0.174

Look up and report measured PBM binding z-score for this entry: "CCTAGTGGGCCATTCAGAGGTCATTGATCATATG" 4.41

Return PBM binding z-score for the following sequence: "CGTCCAAGGTCAATGCTAGGTCAATGAAAGCATT" 2.82

Return the recorded PBM binding z-score value; entry: "TCTGTTAGGTCAACGATGGTCAGCTAATCTGCTA" 3.53

Give the reported value of PBM binding z-score for this record: "TTACCAAGGTGGAGGTCGTTGATCCCTCTGTAGA" -0.0945

Provide only the value of recorded PBM binding z-score for "ATCGAAAGGGCGACGAGGTGAGTATACACCGTTT" -0.129

State its PBM binding z-score for this sequence: "TGAATGAAGTTATAAGATCAGGGAACGTTGCAAA" -1.2

Tell me measured PBM binding z-score for "CCTAGTTGGTCAAGGTCACACAAGCTATAGGTAC" please. 2.43

Provide one value: measured PBM binding z-score of "CCGACTGGGGCATAAAGGTTACCATACCATCCGG" 1.89

Consider the sequence "TAGCCTAGGTCATGGGCGAGTATACCACGCGAAC" . State its measured PBM binding z-score. 1.54

Specify reported PBM binding z-score for the sequence shown: "CCTTACGGGTGACTGACAGGTTATAGCATTTGGA" 1.95

Please indicate PBM binding z-score recorded for "CAAACTAGGTCACGACAGGTCAAAGTCGAATGAC" 8.69

Dear colleague, please send me the reported PBM binding z-score for "CGTCCAAGGTCAAGGTCAGTGAAAGAGACTCGAA" when you can. 3.52

Using the record for "ATCTCTATGTAACCAAGTTCAGTGAATGCCGAAC" , state its measured PBM binding z-score. -0.0629

Report measured PBM binding z-score; entry is "TCTATTAGTTCATTAGGGCAACCGAAACAGCGGA" 2.92

Give the reported PBM binding z-score for this sequence. "CGTCCAAGGTCAAGGTAAGTGAAAGAGACTCGAA" 3.13

Complete the entry with PBM binding z-score for "CCTAGCAGGCCAATCTGGGTCGCTCAAGGCTTGA" 1.28
